Measured inhibition, listed per entry.
- assay target: Discoidin domain-containing receptor 2 (Homo sapiens);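 further: reported figure is the mean inhibition of DDR2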
- Sequence (whole entry): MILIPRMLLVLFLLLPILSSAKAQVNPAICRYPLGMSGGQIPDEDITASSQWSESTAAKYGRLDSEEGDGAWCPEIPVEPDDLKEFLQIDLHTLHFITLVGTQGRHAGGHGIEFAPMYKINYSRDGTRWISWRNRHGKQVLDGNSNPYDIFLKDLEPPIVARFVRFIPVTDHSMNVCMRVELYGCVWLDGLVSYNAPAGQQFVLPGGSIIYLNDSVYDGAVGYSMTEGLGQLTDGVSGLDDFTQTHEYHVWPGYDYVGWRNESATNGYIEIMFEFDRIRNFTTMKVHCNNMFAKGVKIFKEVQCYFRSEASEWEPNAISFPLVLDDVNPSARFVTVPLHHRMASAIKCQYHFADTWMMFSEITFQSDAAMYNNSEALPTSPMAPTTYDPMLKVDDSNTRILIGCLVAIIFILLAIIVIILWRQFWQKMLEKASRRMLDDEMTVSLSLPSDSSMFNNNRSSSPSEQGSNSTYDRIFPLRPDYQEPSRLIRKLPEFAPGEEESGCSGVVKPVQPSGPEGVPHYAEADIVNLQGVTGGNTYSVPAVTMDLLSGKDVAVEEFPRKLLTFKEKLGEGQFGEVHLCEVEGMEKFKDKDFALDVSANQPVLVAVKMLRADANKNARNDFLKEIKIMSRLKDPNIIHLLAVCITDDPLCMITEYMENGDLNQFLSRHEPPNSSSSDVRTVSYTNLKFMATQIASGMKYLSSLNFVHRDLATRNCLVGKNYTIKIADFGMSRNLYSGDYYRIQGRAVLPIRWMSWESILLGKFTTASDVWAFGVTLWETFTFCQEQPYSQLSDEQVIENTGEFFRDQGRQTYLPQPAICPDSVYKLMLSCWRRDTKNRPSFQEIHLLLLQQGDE
- run conditions: at 1 µM
Express it in %; write the number only.

NC(=O)c1ccc2c(-c3ccnc(NCCCO)n3)c(-c3ccc(F)cc3)nn2c1
22.4
Nc1nccc(-c2c(-c3ccc(F)cc3)ncn2C2CCNCC2)n1
0.32
CS(=O)(=O)CCNCc1ccc(-c2ccc3ncnc(Nc4ccc(OCc5ccccc5)cc4)c3c2)o1
2.07
COc1cccc(Nc2nccc(-c3cnn4ncccc34)n2)c1
4.16
CS(=O)(=O)CCNCc1ccc(-c2ccc3ncnc(Nc4ccc(OCc5cccc(C(F)(F)F)c5)cc4)c3c2)o1
2.9

Proceeding to the next compound to report its inhibition.
Provide measured inhibition value, entry: `CC(C)c1ccc(-c2cc(-c3c[nH]nc3-c3ccccn3)ccn2)cc1`
4.98

###

Measured inhibition, listed per entry.
- assay target: Tyrosine-protein kinase Fes/Fps (Homo sapiens) (UniProt P07332)
- Sequence (P07332 whole entry): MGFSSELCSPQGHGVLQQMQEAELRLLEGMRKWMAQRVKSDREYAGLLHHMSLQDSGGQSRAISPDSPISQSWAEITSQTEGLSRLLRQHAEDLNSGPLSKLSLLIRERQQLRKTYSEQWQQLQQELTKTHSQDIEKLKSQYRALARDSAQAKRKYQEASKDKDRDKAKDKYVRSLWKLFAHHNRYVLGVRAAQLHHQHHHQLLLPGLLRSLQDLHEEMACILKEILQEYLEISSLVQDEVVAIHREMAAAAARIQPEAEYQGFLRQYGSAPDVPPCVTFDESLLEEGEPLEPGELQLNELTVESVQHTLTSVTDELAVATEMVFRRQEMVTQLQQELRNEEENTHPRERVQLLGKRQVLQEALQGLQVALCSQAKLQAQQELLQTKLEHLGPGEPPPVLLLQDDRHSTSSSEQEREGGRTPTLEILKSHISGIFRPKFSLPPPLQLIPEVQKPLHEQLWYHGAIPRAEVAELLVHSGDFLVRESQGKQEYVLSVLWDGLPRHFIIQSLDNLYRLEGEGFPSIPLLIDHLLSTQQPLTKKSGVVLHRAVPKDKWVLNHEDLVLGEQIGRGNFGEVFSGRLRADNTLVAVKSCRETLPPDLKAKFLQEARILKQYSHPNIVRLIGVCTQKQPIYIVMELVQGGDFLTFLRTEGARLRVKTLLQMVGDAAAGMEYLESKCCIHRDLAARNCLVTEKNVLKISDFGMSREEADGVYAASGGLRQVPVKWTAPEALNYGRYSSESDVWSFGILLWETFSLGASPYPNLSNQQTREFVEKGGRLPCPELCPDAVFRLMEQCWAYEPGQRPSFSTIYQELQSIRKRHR
- run conditions: at 0.1 µM
- Description: GSK_PKIS: FES mean inhibition at 0.1 uM [Nanosyn]
Express it in %; write the number only.

Known inhibition results, listed for orientation:
N#Cc1ccc2c(-c3ccnc(NC4CC4)n3)c(-c3ccc(F)cc3)nn2c1
1.05
CN1CCC(n2cnc(-c3ccc(F)cc3)c2-c2ccnc(NCCO)n2)CC1
2.72
COC(=O)Nc1nc2cc(Oc3ccc(NC(=O)Nc4ccccc4)cc3)ccc2[nH]1
1.46

Proceeding to the next compound to report its inhibition.
// output inhibition; input `COc1cccc(Nc2nccc(-c3cnn4ncccc34)n2)c1` ; system Tyrosine-protein kinase Fes/Fps (Homo sapiens) (UniProt P07332)
8.87

###

- assay target: MAP kinase-activated protein kinase 5 (Homo sapiens)
- run conditions: at 0.1 µM
Measured inhibition, listed per entry.
Express it in %; write the number only.

Known inhibition results, listed for orientation:
CN1CCC(n2cnc(-c3ccc(F)cc3)c2-c2ccnc(NCCO)n2)CC1
1.7
O=C1Nc2ccccc2/C1=C1\CCc2cc(O)ccc21
1.7
CCCNc1cccc(-n2ncc3c(N/N=C/c4ccncc4)ncnc32)c1
0.95
CNC(=O)c1sc(-n2cnc3cc(OC)c(OC)cc32)cc1OCc1ccccc1C(F)(F)F
1.17
CC1=C(C(=O)Nc2ccc3[nH]ncc3c2)C(c2ccc(F)cc2)N=C(c2ccc(C(F)(F)F)nc2)N1 (centres undefined)
0.55
NS(=O)(=O)c1ccc(N/N=C2\C(=O)Nc3ccc(C(=O)NCc4ccncc4)cc32)cc1
1.84
O=C(O[C@H]1CN[C@H](C#Cc2cc3ncnc(Nc4ccc5c(cnn5Cc5ccccc5)c4)c3s2)C1)N1CCOCC1
-0.48
O=C(O[C@H]1CN[C@H](C#Cc2cc3ncnc(Nc4ccc(OCc5cccc(F)c5)c(Cl)c4)c3s2)C1)N1CCOCC1
2.46

Proceeding to the next compound to report its inhibition.
// output inhibition; input CC1=C(C(=O)Nc2ccc3[nH]nc(C)c3c2)C(c2ccc(C(F)(F)F)cc2)CC(=O)N1 (centres undefined) ; system MAP kinase-activated protein kinase 5 (Homo sapiens);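 further: reported values are mean PRAK inhibition figures from the GSK PKIS screen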
0.34

###

- assay target: Serine/threonine-protein kinase MARK2 (Homo sapiens) (UniProt Q7KZI7)
- Sequence (Q7KZI7 whole entry): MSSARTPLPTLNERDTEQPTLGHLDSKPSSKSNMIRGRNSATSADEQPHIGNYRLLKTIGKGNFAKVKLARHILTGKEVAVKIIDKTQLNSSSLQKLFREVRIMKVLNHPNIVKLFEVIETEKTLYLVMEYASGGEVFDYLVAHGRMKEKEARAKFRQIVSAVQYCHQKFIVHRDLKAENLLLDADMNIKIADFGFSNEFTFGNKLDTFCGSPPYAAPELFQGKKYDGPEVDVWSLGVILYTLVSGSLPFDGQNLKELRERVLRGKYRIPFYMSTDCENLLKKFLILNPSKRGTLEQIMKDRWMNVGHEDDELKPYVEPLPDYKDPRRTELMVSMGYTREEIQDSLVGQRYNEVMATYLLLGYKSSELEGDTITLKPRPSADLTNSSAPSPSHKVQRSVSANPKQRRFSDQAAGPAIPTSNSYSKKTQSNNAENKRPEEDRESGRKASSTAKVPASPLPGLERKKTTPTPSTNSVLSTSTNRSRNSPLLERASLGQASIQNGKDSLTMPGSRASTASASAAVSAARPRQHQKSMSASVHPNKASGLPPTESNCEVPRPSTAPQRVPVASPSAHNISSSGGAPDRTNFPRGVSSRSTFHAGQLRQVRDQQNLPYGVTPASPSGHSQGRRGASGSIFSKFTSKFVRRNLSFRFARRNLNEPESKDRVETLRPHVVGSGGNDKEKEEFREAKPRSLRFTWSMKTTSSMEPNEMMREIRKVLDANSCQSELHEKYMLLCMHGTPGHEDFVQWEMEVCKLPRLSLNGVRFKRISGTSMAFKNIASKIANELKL
- run conditions: at 1 µM
- Description: GSK_PKIS: PAR-1Balpha mean inhibition at 1 uM [Nanosyn]
reported endpoint: inhibition (%)
Express it in %; write the number only.

COc1cc(Nc2ncc(-c3ccccc3)o2)cc(OC)c1
2.52
O=C(O[C@H]1CN[C@H](C#Cc2cc3ncnc(Nc4ccc(OCc5cccc(F)c5)c(Cl)c4)c3s2)C1)N1CCOCC1
-1.51
CN1CCC(n2cnc(-c3ccc(F)cc3)c2-c2ccnc(NCCO)n2)CC1
-0.08
CCS(=O)(=O)c1ccc(OC)c(Nc2ncc(-c3cccc(F)c3)o2)c1
2.64
CNC(=O)c1cncc(/C=C/c2ccccc2C)c1
0.45
CC1=C(C(=O)Nc2ccc3[nH]ncc3c2)C(c2ccc(F)cc2)N=C(c2ccc(C(F)(F)F)nc2)N1 (centres undefined)
2.79
COc1ccc(Nc2ncc(-c3ccccc3)o2)cc1OC
16.8
NS(=O)(=O)c1ccc(N/N=C2\C(=O)Nc3ccc(C(=O)NCc4ccncc4)cc32)cc1
21.3

// output inhibition; input `CS(=O)(=O)Nc1ccc(-c2ccc3c(NC(=O)C4CC4)n[nH]c3c2)cc1` ; system Serine/threonine-protein kinase MARK2 (Homo sapiens) (UniProt Q7KZI7)
0.66

###

- assay target: Serine/threonine-protein kinase Sgk3 (Homo sapiens) (UniProt Q96BR1);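 further: reported percentages are averaged inhibition values against SGK3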
- Sequence (whole entry): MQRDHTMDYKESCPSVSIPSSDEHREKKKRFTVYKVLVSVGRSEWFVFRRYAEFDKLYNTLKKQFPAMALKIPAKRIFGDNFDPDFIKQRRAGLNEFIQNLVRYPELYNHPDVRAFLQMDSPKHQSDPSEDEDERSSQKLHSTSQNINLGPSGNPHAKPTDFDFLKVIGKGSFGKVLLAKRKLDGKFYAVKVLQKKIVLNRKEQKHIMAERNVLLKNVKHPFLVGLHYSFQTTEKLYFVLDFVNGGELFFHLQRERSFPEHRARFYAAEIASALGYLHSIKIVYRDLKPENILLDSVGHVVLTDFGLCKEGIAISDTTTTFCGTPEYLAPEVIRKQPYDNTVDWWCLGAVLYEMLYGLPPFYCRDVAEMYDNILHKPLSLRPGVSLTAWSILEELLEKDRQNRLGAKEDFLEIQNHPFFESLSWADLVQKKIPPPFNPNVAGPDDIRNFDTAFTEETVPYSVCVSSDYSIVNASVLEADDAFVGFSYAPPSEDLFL
- run conditions: at 0.1 µM
Measured inhibition, listed per entry.
Express it in %; write the number only.

Known inhibition results, listed for orientation:
NS(=O)(=O)c1ccc(N/N=C2\C(=O)Nc3cccc(CCc4ccncc4)c32)cc1
-1.13
COc1cc(N2CCN(C(C)C)CC2)ccc1Nc1nc(Nc2cccc(F)c2C(=O)O)c2cc[nH]c2n1
3.6
CC1=C(C(=O)Nc2ccc3[nH]nc(C)c3c2)C(c2ccc(C(F)(F)F)cc2)CC(=O)N1 (centres undefined)
1.33
Fc1ccc(Nc2nccc(-c3c(-c4ccc(C(F)(F)F)cc4)nn4ncccc34)n2)cc1F
2.84
COc1cccc(-n2ncc3c(N/N=C/c4ccc(C(=O)NCCN(C)C)cc4)ncnc32)c1
3.22
CS(=O)(=O)CCNCc1ccoc1-c1ccc2ncnc(Nc3ccc(OCc4ccccc4)cc3)c2c1
5.61

Provide measured inhibition value, entry: `CC1(C)CC(n2cnc(-c3ccc(F)cc3)c2-c2ccnc(N)n2)CC(C)(C)N1`
1.34

Provide measured inhibition value, entry: `NS(=O)(=O)c1cccc(N/C=C2\C(=O)Nc3ccccc32)c1`
6

Provide measured inhibition value, entry: `CCS(=O)(=O)c1ccc(OC)c(Nc2ncc(-c3cccc(C(C)=O)c3)o2)c1`
1.59

###

Measured inhibition, listed per entry.
- System: Epidermal growth factor receptor (Homo sapiens), P00533 [L858R,T790M]
- Sequence (P00533 whole entry T790M/L858R, looked up): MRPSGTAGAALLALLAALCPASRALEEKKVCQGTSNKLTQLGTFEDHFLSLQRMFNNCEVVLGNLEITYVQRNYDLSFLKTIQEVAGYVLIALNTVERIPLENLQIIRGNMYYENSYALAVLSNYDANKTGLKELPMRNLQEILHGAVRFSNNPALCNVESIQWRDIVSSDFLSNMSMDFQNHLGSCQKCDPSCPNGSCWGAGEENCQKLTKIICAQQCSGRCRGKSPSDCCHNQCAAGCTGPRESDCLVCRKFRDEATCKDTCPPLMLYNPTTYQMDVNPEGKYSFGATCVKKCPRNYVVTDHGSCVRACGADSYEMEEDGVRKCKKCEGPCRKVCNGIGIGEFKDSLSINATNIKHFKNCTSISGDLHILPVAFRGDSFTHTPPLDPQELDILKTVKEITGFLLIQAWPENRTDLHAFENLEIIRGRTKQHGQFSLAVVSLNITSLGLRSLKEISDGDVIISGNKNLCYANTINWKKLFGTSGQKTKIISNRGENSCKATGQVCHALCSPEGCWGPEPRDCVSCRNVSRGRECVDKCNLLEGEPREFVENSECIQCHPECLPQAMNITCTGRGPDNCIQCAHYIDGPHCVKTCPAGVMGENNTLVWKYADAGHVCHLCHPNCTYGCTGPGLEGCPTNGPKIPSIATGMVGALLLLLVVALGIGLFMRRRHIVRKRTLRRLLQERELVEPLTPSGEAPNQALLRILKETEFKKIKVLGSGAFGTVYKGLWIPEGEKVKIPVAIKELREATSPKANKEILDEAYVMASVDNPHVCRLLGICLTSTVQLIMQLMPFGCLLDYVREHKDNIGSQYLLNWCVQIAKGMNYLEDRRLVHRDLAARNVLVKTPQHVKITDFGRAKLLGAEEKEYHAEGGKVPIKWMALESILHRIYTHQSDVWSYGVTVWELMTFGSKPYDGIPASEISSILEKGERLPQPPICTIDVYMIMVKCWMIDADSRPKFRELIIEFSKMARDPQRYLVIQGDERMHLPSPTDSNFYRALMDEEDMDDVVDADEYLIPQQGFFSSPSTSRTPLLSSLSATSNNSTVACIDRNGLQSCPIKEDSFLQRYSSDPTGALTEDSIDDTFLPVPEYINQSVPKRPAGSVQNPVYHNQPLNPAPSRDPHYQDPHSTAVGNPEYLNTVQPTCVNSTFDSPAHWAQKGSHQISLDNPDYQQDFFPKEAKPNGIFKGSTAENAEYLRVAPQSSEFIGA
- run conditions: at 1 µM
Express it in %; write the number only.

CN(C)CCNC(=O)Nc1ccc(N(C)c2ccnc(Nc3ccc(CS(C)(=O)=O)cc3)n2)cc1
6.61
CS(=O)(=O)CCNCc1ccc(-c2ccc3ncnc(Nc4ccc(OCc5cccc(C(F)(F)F)c5)cc4)c3c2)o1
3.77
FC(F)(F)CNc1nccc(-c2cnn3ncccc23)n1
1.32
CCS(=O)(=O)c1ccc(OC)c(Nc2ncc(-c3cccc(C(C)=O)c3)o2)c1
7.18
Cc1nnc(-c2cccc(-c3ccc(C(=O)NCC4CC4)cc3)c2)o1
3.63
CNC(=O)c1sc(-n2cnc3cc(OC)c(OC)cc32)cc1OCc1ccccc1C(F)(F)F
1.43

Provide measured inhibition value, entry: `CNC(=O)c1ncccc1Nc1nc(Nc2cc3c(cc2OC)CCCN3C(=O)CN(C)C)nc2[nH]ccc12`
80.5

Provide measured inhibition value, entry: `CN(c1ccc(NC(=O)NCCN2CCOCC2)cc1)c1ccnc(Nc2ccc(CS(C)(=O)=O)cc2)n1`
2.57

Provide measured inhibition value, entry: `CS(=O)(=O)Nc1ccc(-c2ccc3c(NC(=O)C4CC4)n[nH]c3c2)cc1`
0.93

Provide measured inhibition value, entry: `Cc1cc(O)cc(C)c1/C=C/c1cncc(C(=O)OC(C)(C)C)c1`
0.87

Provide measured inhibition value, entry: `COc1cccc(Nc2nccc(-c3cnn4ncccc34)n2)c1`
9.99
